// data source = ChEMBL document CHEMBL2040794

Collected selectivity ratio values appear next to each entry.
test: Selectivity index, ratio of EC50 for human HEK cells to EC50 for wild type Trypanosoma brucei brucei Lister 427; type: toxicity, cell-based, HEK293; settings: HEK cells, read-out: Ratio EC50
The reply should be a number, written without any unit.

Smiles Record	selectivity ratio
Cc1ccc([P+](Cc2ccc(C(=O)c3ccccc3)cc2)(c2ccccc2)c2ccccc2)cc1.[Br-]	504
Cc1ccc([P+](Cc2ccc(C(=O)c3ccc(C[P+](c4ccccc4)(c4ccccc4)c4ccc(C)cc4)cc3)cc2)(c2ccccc2)c2ccccc2)cc1.[Br-].[Br-]	1450

Please turn your attention to the following entry.
Consider the molecule shown here: O=C(c1ccc(C[P+](c2ccc(Cl)cc2)(c2ccc(Cl)cc2)c2ccc(Cl)cc2)cc1)c1ccc(C[P+](c2ccc(Cl)cc2)(c2ccc(Cl)cc2)c2ccc(Cl)cc2)cc1.[Br-].[Br-] What is its recorded selectivity ratio? 67

###

system: L6; experiment: Cytotoxicity against rat L6 cells after 72 hrs by alamar blue assay; format: cell-based; conditions: l6
Measure Name: EC50 (nM)
Please respond with the number in nM and leave the unit unwritten.

Smiles Record	Result Number
Cc1ccc([P+](Cc2ccc(CCCc3ccc(C[P+](c4ccc(C)cc4)(c4ccc(C)cc4)c4ccc(C)cc4)cc3)cc2)(c2ccc(C)cc2)c2ccc(C)cc2)cc1.[Cl-].[Cl-]	1720
Cc1ccc(C[P+](c2ccccc2)(c2ccccc2)c2ccccc2)cc1.[Br-]	12900
Cc1ccc([P+](Cc2ccc(C(=O)c3ccc(C[P+](c4ccc(C)cc4)(c4ccc(C)cc4)c4ccc(C)cc4)cc3)cc2)(c2ccc(C)cc2)c2ccc(C)cc2)cc1.[Cl-].[Cl-]	1220
Cc1ccc([P+](Cc2ccc(CCc3ccc(C[P+](c4ccc(C)cc4)(c4ccc(C)cc4)c4ccc(C)cc4)cc3)cc2)(c2ccc(C)cc2)c2ccc(C)cc2)cc1.[Br-].[Br-]	656
Cc1ccc([P+](Cc2ccc(CCc3ccc(C[P+](c4ccc(C)cc4)(c4ccc(C)cc4)c4ccc(C)cc4)cc3)cc2)(c2ccc(C)cc2)c2ccc(C)cc2)cc1.[Cl-].[Cl-]	1690

Please turn your attention to the following entry.
Consider the compound shown here: Cc1ccc([P+](Cc2ccc(C(=O)c3ccc(C[P+](c4ccc(C)cc4)(c4ccc(C)cc4)c4ccc(C)cc4)cc3)cc2)(c2ccc(C)cc2)c2ccc(C)cc2)cc1.[Br-].[Br-] What is its recorded EC50? 10800

###

assay: Selectivity index, ratio of EC50 for rat L6 cells to EC50 for Trypanosoma brucei rhodesiense STIB900; assay type: toxicity, cell-based; conditions: L6 cells, read-out: Ratio EC50
Would you mind labelling by selectivity ratio? At or over 60 is true (1), under is false (0).

Reference set (5 entries):
Smiles Record	Discrete Label
CC(C)[P+](Cc1ccc(Oc2ccc(C[P+](c3ccccc3)(c3ccccc3)C(C)C)cc2)cc1)(c1ccccc1)c1ccccc1.[Br-].[Br-]	false (0)
CC(C)C[P+](Cc1ccc(Cc2ccc(C[P+](CC(C)C)(CC(C)C)CC(C)C)cc2)cc1)(CC(C)C)CC(C)C.[Br-].[Br-]	true (1)
Cc1ccc([P+](Cc2ccc(Cc3ccc(C[P+](c4ccccc4)(c4ccccc4)c4ccc(C)cc4)cc3)cc2)(c2ccccc2)c2ccccc2)cc1.[Br-].[Br-]	false (0)
C[P+](Cc1ccc(C(=O)c2ccc(C[P+](C)(c3ccccc3)c3ccccc3)cc2)cc1)(c1ccccc1)c1ccccc1.[Br-].[Br-]	true (1)
[Br-].[Br-].c1ccc2c([P+](Cc3ccc(Cc4ccc(C[P+](c5cccc6ccccc56)(c5cccc6ccccc56)c5cccc6ccccc56)cc4)cc3)(c3cccc4ccccc34)c3cccc4ccccc34)cccc2c1	false (0)

Record CCCCCC[P+](CCCCCC)(CCCCCC)Cc1ccc(C(=O)c2ccc(C[P+](CCCCCC)(CCCCCC)CCCCCC)cc2)cc1.[Br-].[Br-] ; criterion: selectivity ratio no lower than 60. Met? false (0)

Record CCCCCC[P+](CCCCCC)(CCCCCC)Cc1ccc(Cc2ccc(C[P+](CCCCCC)(CCCCCC)CCCCCC)cc2)cc1.[Br-].[Br-] ; criterion: selectivity ratio no lower than 60. Met? false (0)

Record CCCCCCCC[P+](CCCCCCCC)(CCCCCCCC)Cc1ccc(C(=O)c2ccc(C[P+](CCCCCCCC)(CCCCCCCC)CCCCCCCC)cc2)cc1.[Br-].[Br-] ; criterion: selectivity ratio no lower than 60. Met? false (0)

Record Cc1ccccc1[P+](Cc1ccc(C(=O)c2ccc(C[P+](c3ccccc3)(c3ccccc3)c3ccccc3C)cc2)cc1)(c1ccccc1)c1ccccc1.[Br-].[Br-] ; criterion: selectivity ratio no lower than 60. Met? true (1)

Record Cc1ccc([P+](Cc2ccc(Oc3ccccc3)cc2)(c2ccc(C)cc2)c2ccc(C)cc2)cc1.[Br-] ; criterion: selectivity ratio no lower than 60. Met? true (1)
